# condition.notes: pH 7.8
Listed here are molecules together with their documented logp [b].

> print(dat)
                                   molecule  test.value
1  Cc1ccc(OCC#N)c(C2CC(c3csc(C4CCN(C(=O)Cn5nc(C(F)F)cc5C(F)F)CC4)n3)=NO2)c1 (stereo not drawn) [I-141]     3.15[b]

**Q:** State its logp [b] for this molecule: O=C(Cn1nc(C(F)F)cc1C(F)F)N1CCC(c2nc(C3=NOC(c4ccccc4OCC#Cc4cccc5ccccc45)C3)cs2)CC1 (stereo not drawn) [I-2]
**A:** 4.68[b]

**Q:** Supply reported logp [b] belonging to this molecule: CS(=O)(=O)Oc1cc(Cl)ccc1C1CC(c2csc(C3CCN(C(=O)Cn4nc(C(F)F)cc4C(F)F)CC3)n2)=NO1 (stereo not drawn) [I-70]
**A:** 3.27[b]

**Q:** Supply logp [b] value. Item: Cc1cc(C(F)F)nn1CC(=O)N1CCC(c2nc(C3=NOC(c4ccccc4OCC#N)C3)cs2)CC1 (stereo not drawn) [I-76]
**A:** 2.62[b]

**Q:** Output measured logp [b] for this item: CS(=O)(=O)Oc1ccccc1C1CC(c2csc(C3CCN(C(=O)Cn4nc(C(F)F)cc4C(F)F)CC3)n2)=NO1 (stereo not drawn) [I-124]
**A:** 2.86[b]

**Q:** Given N#CCOc1ccc(F)c(C2CC(c3csc(C4CCN(C(=O)Cn5nc(C(F)F)cc5C(F)F)CC4)n3)=NO2)c1F (stereo not drawn) [I-80] , respond with its logp [b].
**A:** 2.85[b]

**Q:** Give me measured logp [b], please, for this molecule: C[Si](C)(C)C#Cc1ccccc1C1CC(c2csc(C3CCN(C(=O)Cn4nc(C(F)F)cc4C(F)F)CC3)n2)=NO1 (stereo not drawn) [I-133]
**A:** 4.79[b]

**Q:** Read the entry N#CCOc1cc(Cl)ccc1C1CC(c2csc(C3CCN(C(=O)Cn4nc(C(F)F)cc4C(F)F)CC3)n2)=NO1 (stereo not drawn) [I-71] and write its reported logp [b].
**A:** 3.22[b]

**Q:** Hello, please tell me recorded logp [b] for this one: CCS(=O)(=O)Oc1cccc(C2CC(c3csc(C4CCN(C(=O)Cn5nc(C(F)F)cc5C(F)F)CC4)n3)=NO2)c1 (stereo not drawn) [I-77]
**A:** 2.99[b]

**Q:** Identify measured logp [b] associated with CN(C)C(=S)c1ccccc1C1CC(c2csc(C3CCN(C(=O)Cn4nc(C(F)F)cc4C(F)F)CC3)n2)=NO1 (stereo not drawn) [I-127]
**A:** 3.06[b]
